Target: Human DNA topoisomerase II
Experiment: DNA topoisomerase II assay (P4 unknotting reaction)
Format: biochemical
Conditions: Table 1; based on degree of inhibition at 25, 50, and 100 μM; read-out: Inhibition of DNA Topoisomerase II Activity ID50
observation.type: IC50 (µM)
Entry rule: numbers only, all in µM.

INPUT: Please state recorded IC50 (tested on Human DNA topoisomerase II) of COc1cc(C2c3cc4c(cc3C(NCc3ccccc3)C3COC(=O)C23)OCO4)cc(OC)c1O (centres unmarked) [Example 3]
OUTPUT: 25

INPUT: Query IC50 on Human DNA topoisomerase II for COc1cc(C2c3cc4c(cc3C(NCc3cccc(C#N)c3)C3COC(=O)C23)OCO4)cc(OC)c1O (centres unmarked) [Example 10]
OUTPUT: 25

INPUT: Record COc1cc(C2c3cc4c(cc3C(NCc3ccc(F)cc3)C3COC(=O)C23)OCO4)cc(OC)c1O (centres unmarked) [Example 9] : what is its IC50 with Human DNA topoisomerase II?
OUTPUT: 50

INPUT: Field: IC50 (Human DNA topoisomerase II). Entry: COc1cc(C2c3cc4c(cc3C(NCc3ccc(C#N)cc3)C3COC(=O)C23)OCO4)cc(OC)c1O (centres unmarked) [Example 11]
OUTPUT: 25

INPUT: Reported IC50 for Human DNA topoisomerase II, given COc1cc(C2c3cc4c(cc3C(NCc3cccc(N)c3)C3COC(=O)C23)OCO4)cc(OC)c1O (centres unmarked) [Example 13] ?
OUTPUT: 25

----------
Target: Human DNA topoisomerase II
Test: DNA topoisomerase II assay (P4 unknotting reaction)
Type: biochemical
Conditions: Table 1; based on degree of inhibition at 25, 50, and 100 μM; read-out: Inhibition of DNA Topoisomerase II Activity ID50
observation.type: pIC50
Keep in mind that pIC50 stands for -log10 of concentration in molar terms.

INPUT: What pIC50 appears in the records for this compound with Human DNA topoisomerase II? COc1cc(C2c3cc4c(cc3C(NCc3ccccc3F)C3COC(=O)C23)OCO4)cc(OC)c1O (stereo not shown)
OUTPUT: 4.00

INPUT: Query the reported pIC50 for Human DNA topoisomerase II; item: COc1cc(CNC2c3cc4c(cc3C(c3cc(OC)c(O)c(OC)c3)C3C(=O)OCC23)OCO4)cc(OC)c1 (stereo not shown)
OUTPUT: 4.00

INPUT: For Human DNA topoisomerase II, provide pIC50 of COc1cc(C2c3cc4c(cc3C(NCc3ccccc3N)C3COC(=O)C23)OCO4)cc(OC)c1O (stereo not shown) please.
OUTPUT: 4.60

INPUT: For Human DNA topoisomerase II, provide pIC50 of COc1cc(C2c3cc4c(cc3C(NCc3cccc([N+](=O)[O-])c3)C3COC(=O)C23)OCO4)cc(OC)c1O (stereo not shown) please.
OUTPUT: 4.60

INPUT: Give recorded pIC50 with Human DNA topoisomerase II for the following compound: COc1cc(C2c3cc4c(cc3C(NCc3cccc(F)c3)C3COC(=O)C23)OCO4)cc(OC)c1O (stereo not shown)
OUTPUT: 4.60

INPUT: Record lookup: for Human DNA topoisomerase II, what pIC50 belongs to COc1cc(C2c3cc4c(cc3C(NCc3ccccc3[N+](=O)[O-])C3COC(=O)C23)OCO4)cc(OC)c1O (stereo not shown) ?
OUTPUT: 4.30

INPUT: // fetch Human DNA topoisomerase II pIC50 for COc1cc(C2c3cc4c(cc3C(NCc3ccc([N+](=O)[O-])cc3)C3COC(=O)C23)OCO4)cc(OC)c1O (stereo not shown)
OUTPUT: 4.30

----------
Molecular target: Human DNA topoisomerase II
Experiment: DNA topoisomerase II assay (P4 unknotting reaction)
Assay type: biochemical
Conditions: Table 3; based on degree of inhibition at 20, 25, 50 and 100 μM; read-out: Inhibition of DNA Topoisomerase II Activity ID50
observation.type: pIC50
Formally, pIC50 is defined as -log10 of the concentration c, with c in mol/L.

INPUT: What pIC50 appears in the records for this molecule with Human DNA topoisomerase II? CCOC(=O)c1ccc(N[C@@H]2c3cc(O)c(O)cc3[C@@H](c3cc(OC)c(O)c(OC)c3)[C@H]3C(=O)OC[C@@H]32)cc1 [Example 28]
OUTPUT: 4.70

INPUT: Lookup: pIC50 / Human DNA topoisomerase II / COc1cc2c(cc1OC)[C@@H](Nc1ccc(C#N)cc1)[C@H]1COC(=O)[C@@H]1[C@@H]2c1cc(OC)c(O)c(OC)c1 [Example 32]
OUTPUT: 4.30

INPUT: What is its pIC50 for Human DNA topoisomerase II? Entry: COc1cc([C@@H]2c3cc(O)c(O)cc3[C@@H](Nc3ccccc3)[C@H]3COC(=O)[C@H]23)cc(OC)c1O [Example 26]
OUTPUT: 4.60

INPUT: Write down the reported pIC50 of COc1cc2c(cc1OC)[C@@H](Nc1ccc(F)cc1)[C@H]1COC(=O)[C@@H]1[C@@H]2c1cc(OC)c(O)c(OC)c1 [Example 31] , test system: Human DNA topoisomerase II.
OUTPUT: 4.30

INPUT: Give recorded pIC50 with Human DNA topoisomerase II for the following molecule: CCOC(=O)c1ccc(N[C@@H]2c3cc(OC)c(OC)cc3[C@@H](c3cc(OC)c(O)c(OC)c3)[C@H]3C(=O)OC[C@@H]32)cc1 [Example 33]
OUTPUT: 4.00

INPUT: Given the entry COc1cc([C@@H]2c3cc(O)c(O)cc3[C@@H](Nc3ccc(F)cc3)[C@H]3COC(=O)[C@H]23)cc(OC)c1O [Example 30] , what pIC50 was observed with Human DNA topoisomerase II?
OUTPUT: 4.60

INPUT: Lab note: need pIC50 for COc1cc([C@@H]2c3cc(O)c(O)cc3[C@@H](Nc3ccc([N+](=O)[O-])cc3)[C@H]3COC(=O)[C@H]23)cc(OC)c1O [Example 27] on Human DNA topoisomerase II, anyone have it?
OUTPUT: 4.70

INPUT: # returns recorded pIC50 (system: Human DNA topoisomerase II) for COc1cc([C@@H]2c3cc(O)c(O)cc3[C@@H](Nc3ccc(C#N)cc3)[C@H]3COC(=O)[C@H]23)cc(OC)c1O [Example 29]
OUTPUT: 4.70

----------
Biological target: Human DNA topoisomerase II
Experiment: DNA topoisomerase II assay (P4 unknotting reaction)
Format: biochemical
Conditions: Table 4; based on degree of inhibition at 10, 25, 50 and 100 μM; read-out: Inhibition of DNA Topoisomerase II Activity ID50
observation.type: pIC50
Quick note: pIC50 values are minus log10 of concentrations in mol/L.

INPUT: Bench note: what pIC50 did COc1cc([C@@H]2c3cc4c(cc3[C@@H](NC(=O)c3ccc(C#N)cc3)[C@H]3COC(=O)[C@H]23)OCO4)cc(OC)c1O show?
OUTPUT: 4.60

INPUT: So what does the record say about pIC50 for COc1cc([C@@H]2c3cc4c(cc3[C@@H](NC(=O)c3cccc(C#N)c3)[C@H]3COC(=O)[C@H]23)OCO4)cc(OC)c1O ?
OUTPUT: 4.30

INPUT: Can you share its pIC50? I mean this molecule: COc1cc([C@@H]2c3cc4c(cc3[C@@H](NC(=O)c3ccc(F)cc3)[C@H]3COC(=O)[C@H]23)OCO4)cc(OC)c1O
OUTPUT: 4.60

----------
Target: Human DNA topoisomerase II
Experiment: DNA topoisomerase II assay (P4 unknotting reaction)
Type: biochemical
Conditions: Table 4; based on degree of inhibition at 10, 25, 50 and 100 μM; read-out: Inhibition of DNA Topoisomerase II Activity ID50
Field: pIC50. Provide a value for each of the molecules that follow.
Recall that pIC50 is obtained by taking minus log10 of the concentration measured in molar.

INPUT: Which value of pIC50 has been reported for COc1cc([C@@H]2c3cc4c(cc3[C@@H](NC(=O)c3ccc(C(C)=O)cc3)[C@H]3COC(=O)[C@H]23)OCO4)cc(OC)c1O in the records?
OUTPUT: 4.30

INPUT: Return reported pIC50; argument: COc1cc([C@@H]2c3cc4c(cc3[C@@H](NC(=O)c3cccc([N+](=O)[O-])c3)[C@H]3COC(=O)[C@H]23)OCO4)cc(OC)c1O
OUTPUT: 5.00

INPUT: So what does the record say about pIC50 for COc1cc([C@@H]2c3cc4c(cc3[C@@H](NC(=O)c3cccc(N)c3)[C@H]3COC(=O)[C@H]23)OCO4)cc(OC)c1O ?
OUTPUT: 4.60

INPUT: # get_value(readout='pIC50', item= COc1cc([C@@H]2c3cc4c(cc3[C@@H](NC(=O)c3ccc(OC(C)=O)cc3)[C@H]3COC(=O)[C@H]23)OCO4)cc(OC)c1O )
OUTPUT: 4.60

INPUT: What value of pIC50 has been recorded for this entry: COc1cc([C@@H]2c3cc4c(cc3[C@@H](NC(=O)c3ccccc3O)[C@H]3COC(=O)[C@H]23)OCO4)cc(OC)c1O
OUTPUT: 4.30
